target: p110 alpha (Homo sapiens (Human), UniProt P42336); assay: PI3K isoform inhibition assay, p110 alpha (for alpha/delta selectivity); details: ratio of biochemical IC50 values
Sequence (P42336 whole entry, canonical isoform): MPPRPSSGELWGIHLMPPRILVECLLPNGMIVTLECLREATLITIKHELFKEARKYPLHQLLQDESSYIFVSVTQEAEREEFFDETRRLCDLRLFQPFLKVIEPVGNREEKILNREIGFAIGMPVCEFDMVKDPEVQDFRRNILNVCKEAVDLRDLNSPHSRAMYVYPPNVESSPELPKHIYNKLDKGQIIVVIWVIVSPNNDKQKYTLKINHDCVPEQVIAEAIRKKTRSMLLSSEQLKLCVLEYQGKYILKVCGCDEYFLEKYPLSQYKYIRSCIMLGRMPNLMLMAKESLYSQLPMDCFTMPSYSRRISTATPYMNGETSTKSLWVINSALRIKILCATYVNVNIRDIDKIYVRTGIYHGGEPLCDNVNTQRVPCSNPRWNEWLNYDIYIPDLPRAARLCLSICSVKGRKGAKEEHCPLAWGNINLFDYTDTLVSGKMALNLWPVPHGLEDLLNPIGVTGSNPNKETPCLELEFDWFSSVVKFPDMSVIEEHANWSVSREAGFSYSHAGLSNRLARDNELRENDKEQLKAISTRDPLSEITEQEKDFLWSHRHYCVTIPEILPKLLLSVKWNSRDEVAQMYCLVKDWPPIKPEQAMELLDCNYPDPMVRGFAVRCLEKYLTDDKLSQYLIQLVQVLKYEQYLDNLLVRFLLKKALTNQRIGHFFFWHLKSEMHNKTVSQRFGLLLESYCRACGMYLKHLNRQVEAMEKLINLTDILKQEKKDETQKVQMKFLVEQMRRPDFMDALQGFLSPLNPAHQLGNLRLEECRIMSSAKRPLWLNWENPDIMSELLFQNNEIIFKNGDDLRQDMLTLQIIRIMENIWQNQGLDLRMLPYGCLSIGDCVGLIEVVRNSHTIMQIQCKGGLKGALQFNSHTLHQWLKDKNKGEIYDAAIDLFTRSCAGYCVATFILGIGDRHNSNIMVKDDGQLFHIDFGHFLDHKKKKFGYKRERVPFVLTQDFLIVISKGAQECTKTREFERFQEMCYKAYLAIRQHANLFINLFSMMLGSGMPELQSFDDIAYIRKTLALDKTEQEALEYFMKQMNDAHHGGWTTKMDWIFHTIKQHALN
Sequence (P27986 whole entry partner, canonical isoform): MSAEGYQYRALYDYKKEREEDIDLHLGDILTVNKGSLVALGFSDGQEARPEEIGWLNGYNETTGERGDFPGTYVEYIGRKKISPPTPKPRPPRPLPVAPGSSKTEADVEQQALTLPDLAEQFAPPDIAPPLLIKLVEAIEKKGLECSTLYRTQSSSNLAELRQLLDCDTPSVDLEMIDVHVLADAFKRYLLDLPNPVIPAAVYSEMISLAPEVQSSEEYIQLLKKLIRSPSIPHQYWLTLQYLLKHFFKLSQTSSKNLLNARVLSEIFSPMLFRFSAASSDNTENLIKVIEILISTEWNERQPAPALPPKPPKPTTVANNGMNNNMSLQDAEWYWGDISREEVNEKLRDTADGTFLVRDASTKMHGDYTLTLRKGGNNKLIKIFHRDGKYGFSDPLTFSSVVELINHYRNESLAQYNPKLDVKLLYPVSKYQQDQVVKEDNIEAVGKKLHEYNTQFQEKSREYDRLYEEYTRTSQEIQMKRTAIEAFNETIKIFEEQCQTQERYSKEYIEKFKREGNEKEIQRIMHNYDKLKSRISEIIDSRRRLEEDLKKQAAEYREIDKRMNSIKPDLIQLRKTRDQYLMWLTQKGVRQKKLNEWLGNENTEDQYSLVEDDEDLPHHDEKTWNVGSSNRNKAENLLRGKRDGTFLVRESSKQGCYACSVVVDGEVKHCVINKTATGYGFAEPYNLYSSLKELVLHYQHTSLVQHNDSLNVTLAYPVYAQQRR
measure: IC50 p110 alpha/IC50 p110 delta
Kindly provide the number alone.

Below: 6 molecules and their reported IC50 p110 alpha/IC50 p110 delta.
[
  {
    "molecule": "Cc1nc(-c2cn3c(n2)-c2cc([C@H](C)N4CCN(C(C)(C)C)CC4)ncc2OCC3)n(C(C)C)n1",
    "system under test": "p110 alpha (Homo sapiens (Human), UniProt P42336)",
    "IC50 p110 alpha/IC50 p110 delta": 113
  },
  {
    "molecule": "Cc1nc(-c2cn3c(n2)-c2ccc(-c4cnn(C)c4C4CCCCN4CC(C)(C)O)cc2OCC3)n(C(C)C)n1 (centres unmarked)",
    "system under test": "p110 alpha (Homo sapiens (Human), UniProt P42336)",
    "IC50 p110 alpha/IC50 p110 delta": 13.1
  },
  {
    "molecule": "Cc1nc(-c2cn3c(n2)-c2ccc(OC4(C)CCN(C(C)C)C4)cc2OCC3)n(C(C)C)n1 (centres unmarked)",
    "system under test": "p110 alpha (Homo sapiens (Human), UniProt P42336)",
    "IC50 p110 alpha/IC50 p110 delta": 14.4
  },
  {
    "molecule": "Cc1nc(-c2cn3c(n2)-c2cc([C@@H](C)N4CCN(C(C)(C)C)CC4)c(F)cc2OCC3)n(C(C)C)n1",
    "system under test": "p110 alpha (Homo sapiens (Human), UniProt P42336)",
    "IC50 p110 alpha/IC50 p110 delta": 479
  },
  {
    "molecule": "Cc1nc(-c2cn3c(n2)-c2ccc(N4CCCC4CN(C)C)cc2OCC3)n(C(C)C)n1 (centres unmarked) [Example 346]",
    "system under test": "p110 alpha (Homo sapiens (Human), UniProt P42336)",
    "IC50 p110 alpha/IC50 p110 delta": 23
  },
  {
    "molecule": "Cc1nc(-c2cn3c(n2)-c2ccc(-c4cn(C)nc4C4CCCN(C(C)C)C4)cc2OCC3)n(C(C)C)n1 (centres unmarked)",
    "system under test": "p110 alpha (Homo sapiens (Human), UniProt P42336)",
    "IC50 p110 alpha/IC50 p110 delta": 32.7
  }
]

Task: Supply reported IC50 p110 alpha/IC50 p110 delta belonging to this molecule: Cc1nc(-c2cn3c(n2)-c2ccc(-c4cnn(C)c4N4CCN(C)[C@H](C(C)C)C4)cc2OCC3)n(C(C)C)n1
Output: 48.8

Task: Answer with reported IC50 p110 alpha/IC50 p110 delta of CC(C)n1ncnc1-c1cn2c(n1)-c1cnc(N3CCCC3CN3CCCC3)cc1OCC2 (centres unmarked)
Output: 18.3

---

molecular target: p110 delta (Homo sapiens (Human), UniProt O00329); test: PI3K isoform inhibition assay, p110 delta (fluorescence polarization displacement)
Sequence (O00329 whole entry, one chain of several, canonical isoform): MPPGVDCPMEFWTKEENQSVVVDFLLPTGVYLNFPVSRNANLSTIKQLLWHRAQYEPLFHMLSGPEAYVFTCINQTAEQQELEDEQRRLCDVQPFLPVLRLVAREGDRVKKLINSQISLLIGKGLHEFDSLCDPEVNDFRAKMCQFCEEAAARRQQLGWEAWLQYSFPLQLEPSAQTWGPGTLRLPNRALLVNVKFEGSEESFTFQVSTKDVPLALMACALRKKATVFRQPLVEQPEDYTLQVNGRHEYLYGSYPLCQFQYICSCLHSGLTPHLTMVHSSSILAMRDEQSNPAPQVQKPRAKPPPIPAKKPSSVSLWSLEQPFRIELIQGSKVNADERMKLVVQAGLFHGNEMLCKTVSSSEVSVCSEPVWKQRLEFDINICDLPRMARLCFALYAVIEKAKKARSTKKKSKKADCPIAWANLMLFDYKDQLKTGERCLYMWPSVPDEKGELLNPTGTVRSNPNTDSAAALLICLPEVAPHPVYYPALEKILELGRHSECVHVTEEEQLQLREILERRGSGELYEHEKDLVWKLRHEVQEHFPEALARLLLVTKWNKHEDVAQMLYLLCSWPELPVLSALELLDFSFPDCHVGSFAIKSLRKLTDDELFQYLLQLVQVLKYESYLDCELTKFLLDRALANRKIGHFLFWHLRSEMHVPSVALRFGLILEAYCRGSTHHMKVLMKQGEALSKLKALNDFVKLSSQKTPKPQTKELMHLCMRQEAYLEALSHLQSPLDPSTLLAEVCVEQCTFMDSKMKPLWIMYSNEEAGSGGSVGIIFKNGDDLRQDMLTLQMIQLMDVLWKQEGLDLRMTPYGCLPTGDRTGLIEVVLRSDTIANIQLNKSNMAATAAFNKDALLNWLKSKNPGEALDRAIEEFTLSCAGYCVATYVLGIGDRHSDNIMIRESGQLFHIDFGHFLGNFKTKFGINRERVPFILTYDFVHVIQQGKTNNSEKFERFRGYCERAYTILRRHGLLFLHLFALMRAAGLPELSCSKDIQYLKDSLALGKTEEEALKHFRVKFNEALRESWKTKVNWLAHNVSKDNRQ
Each entry below lists one item and its recorded log10(IC50) value.
Please be aware that the numbers have been log10-transformed from IC50 in nM.

Guide cases for log10(IC50), answers given:
[
  {
    "compound": "Cc1nc(-c2cn3c(n2)-c2cc(C(C)N4CCN(C)CC4)c(F)cc2OCC3)n(C(C)C)n1 (centres unmarked) [Example 373]",
    "log10(IC50)": 0.50
  },
  {
    "compound": "COc1cc2c(cc1[C@H](C)N1CCN(C(C)(C)C)CC1)-c1nc(-c3nc(C)nn3C(C)C)cn1CCO2 [Example 357]",
    "log10(IC50)": -0.11
  },
  {
    "compound": "Cc1nc(-c2cn3c(n2)-c2ccc(N4CCCC45CCCN(C(C)C)C5)cc2OCC3)n(C(C)C)n1 (centres unmarked) [Example 337]",
    "log10(IC50)": 0.18
  },
  {
    "compound": "CC(C)n1ncnc1-c1cn2c(n1)-c1cnc(N3CCCC3CN3CCCC3)cc1OCC2 (centres unmarked) [Example 105]",
    "log10(IC50)": -0.15
  },
  {
    "compound": "Cc1nc(-c2cn3c(n2)-c2cc([C@H](C)N4CCN(C(C)(C)C)CC4)c(F)cc2OCC3)n(C(C)C)n1 [Example 297]",
    "log10(IC50)": 0.38
  }
]

Task: Please respond with reported log10(IC50) (system p110 delta (Homo sapiens (Human), UniProt O00329)) for Cc1nc(-c2cn3c(n2)-c2cc(C(=O)N4CCN(C(C)(C)CO)CC4)c(F)cc2OCC3)n(C(C)C)n1 [Example 281] .
Output: 0.75

Task: // output log10(IC50); input Cc1nc(-c2cn3c(n2)-c2ccc(N4CCCC4CN(C)C)cc2OCC3)n(C(C)C)n1 (centres unmarked) [Example 348] ; system p110 delta (Homo sapiens (Human), UniProt O00329)
Output: -0.35

Task: Send back p110 delta (Homo sapiens (Human), UniProt O00329) log10(IC50) of Cc1nc(-c2cn3c(n2)-c2cc(-c4ccnn4[C@@H]4CCCN(C5COC5)C4)c(F)cc2OCC3)n(C(C)C)n1 [Example 351] only.
Output: 0.34

Task: Report value: log10(IC50), system: p110 delta (Homo sapiens (Human), UniProt O00329), compound: Cc1nc(-c2cn3c(n2)-c2ccc(N4CCCC4C4CCCN(C)C4)cc2OCC3)n(C(C)C)n1 (centres unmarked) [Example 322]
Output: 0.75

Task: Provide log10(IC50), recorded with p110 delta (Homo sapiens (Human), UniProt O00329), of Cc1nc(-c2cn3c(n2)-c2ccc(-c4ccnn4C4CCN(C(C)C)CC4)cc2OCC3)n(C(C)C)n1 [Example 296]
Output: 0.03

Task: Recall the reported log10(IC50) of Cc1nc(-c2cn3c(n2)-c2ccc(-c4cn[nH]c4C4CCCN(C(C)C)C4)cc2OCC3)n(C(C)C)n1 (centres unmarked) [Example 360] when tested on p110 delta (Homo sapiens (Human), UniProt O00329).
Output: -0.51

Task: Quote p110 delta (Homo sapiens (Human), UniProt O00329) log10(IC50) for entry CCN(CC)C1CCOC(c2c(-c3ccc4c(c3)OCCn3cc(-c5nc(C)nn5C(C)C)nc3-4)cnn2C)C1 (centres unmarked) [Example 333] .
Output: 0.37

Task: Give log10(IC50) only, for Cc1nc(-c2cn3c(n2)-c2ccc(OC4(CC5CC5)CNC4)cc2OCC3)n(C(C)C)n1 [Example 284] , using p110 delta (Homo sapiens (Human), UniProt O00329) data.
Output: 0.46

Task: Under p110 delta (Homo sapiens (Human), UniProt O00329): report log10(IC50) of Cc1nc(-c2cn3c(n2)-c2ccc(N4CCCC4C4CCCCN4C)cc2OCC3)n(C(C)C)n1 (centres unmarked) [Example 324] .
Output: 2.14

Task: Give log10(IC50) only, for Cc1nc(-c2cn3c(n2)-c2cc([C@@H](C)N4CCN(C(C)(C)C)CC4)c(F)cc2OCC3)n(C(C)C)n1 [Example 294] , using p110 delta (Homo sapiens (Human), UniProt O00329) data.
Output: -0.11

Task: Fetch value of log10(IC50) on p110 delta (Homo sapiens (Human), UniProt O00329) for Cc1nc(-c2cn3c(n2)-c2cc([C@@H](C)N4CCN(C(C)C)CC4)c(F)cc2OCC3)n(C(C)C)n1 [Example 338] .
Output: 0.17

Task: Write down the reported log10(IC50) (system: p110 delta (Homo sapiens (Human), UniProt O00329)) of COc1cc2c(cc1[C@@H](C)N1CCN(C(C)(C)C)CC1)-c1nc(-c3nc(C)nn3C(C)C)cn1CCO2 [Example 356]
Output: 0.02
